assayed_system: JAK1 (Homo sapiens (Human), UniProt P23458)
Sequence (P23458 875-1153): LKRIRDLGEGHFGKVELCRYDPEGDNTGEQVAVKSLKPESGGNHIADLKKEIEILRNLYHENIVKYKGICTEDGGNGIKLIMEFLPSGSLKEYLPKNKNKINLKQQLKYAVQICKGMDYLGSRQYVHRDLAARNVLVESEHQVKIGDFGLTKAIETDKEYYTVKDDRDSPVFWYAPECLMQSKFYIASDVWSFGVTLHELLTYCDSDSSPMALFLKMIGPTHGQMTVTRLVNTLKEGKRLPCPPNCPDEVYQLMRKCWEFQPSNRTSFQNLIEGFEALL
experimental_protocol: JAK Caliper Enzyme Assay at 1 mM ATP, JAK1
Format: biochemical
measure_name: IC50 (µM)

CS(=O)(=O)N1CC(CC#N)(n2ccc(-c3nc(-c4ccn5ccnc5c4)cc4ncccc34)n2)C1 [Example 163]; 4.07

[A] CS(=O)(=O)c1ccc(-c2cc3ncccc3c(-c3ccn(C4(CC#N)CC(C#N)C4)n3)n2)cn1 (stereo not shown) [Example 207]
[B] CO[C@H]1C[C@@](CC#N)(n2ncc(-c3cc(-c4cc[nH]n4)cc4ncccc34)n2)C1 [Example 304]
[C] CCCS(=O)(=O)N1CC(CC#N)(n2ccc(-c3nc(-c4cnn(C)c4)cc4ncccc34)n2)C1 [Example 106]
[D] Cn1ncc(-c2cc3ncccc3c(-c3ccn(C4(CC#N)CN(S(C)(=O)=O)C4)n3)n2)c1N [Example 137]
# input Order the entries by their reported IC50, beginning at the minimum. Answer format: the labels, ordered as requested.
# output A, D, B, C
(A: 0.285 µM, D: 0.586 µM, B: 2.3 µM, C: 5.4 µM)
